Recorded values, source paper doi:10.1101/2025.02.23.639735.

systemTested: T1, 3’hExofl (human, UniProt Q8IV48 1-349)
T1 sequence (looked up): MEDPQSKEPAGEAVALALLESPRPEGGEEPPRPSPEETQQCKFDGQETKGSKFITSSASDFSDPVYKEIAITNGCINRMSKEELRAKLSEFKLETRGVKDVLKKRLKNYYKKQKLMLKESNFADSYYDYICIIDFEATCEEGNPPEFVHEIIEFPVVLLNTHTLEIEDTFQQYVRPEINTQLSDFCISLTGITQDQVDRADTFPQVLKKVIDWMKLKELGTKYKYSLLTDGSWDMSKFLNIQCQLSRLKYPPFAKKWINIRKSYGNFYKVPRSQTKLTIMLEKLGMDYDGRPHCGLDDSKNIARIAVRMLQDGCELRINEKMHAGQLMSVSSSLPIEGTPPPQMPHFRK
measurementDescription: NMR titration
observable: Kd

Query: Kd; subject: UPF2^1024-1085 (domain or fragment, human, UniProt Q9HAU5 1024-1085, looked up, also: 15N-labelled) TEGENLEEDEEEEEGGAETEEQSGNESEVNEPEEEEGSDNDDDEGEEEEEENTDYLTDSNKE
~200 µM
